// values below are reported growth
- System: HCT-15 colon
- experiment.summary: NCI-60 one-dose screen, 48 h (100 = growth as untreated, 0 = no growth, -100 = all killed)
- condition.set: 10 µM unless noted
The panel holds about 83,000 compounds, 20% with a hit somewhere; the sample as a whole holds those more often. Activity calls are given as the source filed them. The calls were made as follows: active = growth percent below 10; inactive = the rest.
value.type: growth

INSERT INTO measurements (compound, observed) VALUES
  ('CCNc1nnc(COc2ccc(CNC(=O)CCCC/C=C/C(C)C)cc2OC)o1', '96.9% (inactive)'),
  ('CCOC(=O)C(C)C(C)(O)c1ccccc1 (stereo unspecified)', '108% (inactive)'),
  ('COc1ccccc1C(=O)Nc1cccc(-c2cc(=O)c3c(OC)c(OC)c(OC)cc3o2)c1', '41.5% (inactive)'),
  ('CC(=O)O.[In]', '109% (inactive)'),
  ('CCCCCCCCCCCCCCCCCC1=NCCN1CCNC(C)=O', '74.6% (inactive)'),
  ('O=P(OCCCl)(OCCCl)C(O)c1ccccc1Cl (stereo unspecified)', '99.5% (inactive)');

* * *

- System: UACC-257 melanoma
- experiment.summary: NCI-60 one-dose screen, 48 h (100 = growth as untreated, 0 = no growth, -100 = all killed)
- condition.set: 10 µM unless noted
This is part of a sample that, as a whole, favours compounds with a hit. Of some 83,000 tested, about 20% had one in any assay.
value.type: growth (%)

INSERT INTO assay_data (smiles_input, value_type, reading_unit, observed) VALUES
  ('COc1cc2ncnc(-n3ncc4cc(NC(=O)Nc5ccccc5)ccc43)c2cc1OC', 'growth', '%', 28.7),
  ('CC(=O)Nc1ccc(CC#N)cc1Br', 'growth', '%', 103),
  ('Cc1nc(NC(=S)Nc2ccc(F)cc2)sc1C(=O)NNC(=S)Nc1ccc(F)cc1', 'growth', '%', 82.1),
  ('O=S(=O)(O)c1ccc2c(c1)Sc1cc(S(=O)(=O)O)ccc1O2', 'growth', '%', 108),
  ('COc1cc2cn3c4ccc(O)cc4[nH]c(=O)c3c2cc1OC', 'growth', '%', -10.1),
  ('Clc1ccc(N/N=C(\c2ccccc2)c2ccccn2)nc1', 'growth', '%', -7.64),
  ('CCN(CC)c1ccc2nc3ccc(N=Nc4ccc(O)cc4)cc3[n+](-c3ccccc3)c2c1', 'growth', '%', -1.57),
  ('CC(C)(C)OC(=O)N1C/C(=C\c2ccccc2)C(=O)/C(=C/c2ccccc2)C1', 'growth', '%', 91.4),
  ('c1ccc(-c2cn3ccnc3c(-c3ccc4ncn(C5CCCCC5)c4c3)n2)cc1', 'growth', '%', 94.8),
  ('COC(=O)c1ccc2[nH]c(O)c(C(=Nc3ccc(N(C)C(=O)CN4CCN(C)CC4)cc3)c3ccc(N)cc3)c2c1', 'growth', '%', 125);

* * *

- Tested on: MOLT-4 leukemia
- experiment.summary: NCI-60 one-dose screen, 48 h
- condition.set: 10 µM unless noted
Compounds without any hit were thinned out: in the full panel of roughly 83,000, 20% have a hit. Activity calls are given as the source filed them. Rule for the calls: active = growth percent below 10; inactive = the rest.
Classes used: yes (1) (active), no (0) (inactive)

INSERT INTO assay_data (smiles_input, qualitative_label) VALUES
  ('COc1ccc2cnc(N)c(C#Cc3cc(C(=O)Nc4ccc(CN5CCN(C)CC5)c(C(F)(F)F)c4)cnc3C)c2c1', 'no (0)'),
  ('Cc1ccc(OCCn2ccc(=O)n(CCOc3ccc(Cl)cc3C(=O)c3cc(C)cc(C)c3)c2=O)cc1', 'no (0)'),
  ('COC(=O)[C@@H]1[C@H](O)[C@H](C)[C@H](O)[C@H](C)/C=C\C=C(C)C(=O)Nc2c(C)c(OC(C)=O)c3c(c2O)C(=O)C(C)=C2OCOC(=C23)C(C)=C[C@@](C)(O)[C@H](O)[C@@H](C)[C@H]1OC(C)=O', 'no (0)'),
  ('COc1ccc(Nc2c3ccccc3nc3ccccc23)cc1', 'yes (1)'),
  ('CC1=NN(c2cccc(Cl)c2)C(=O)/C1=C\c1cn(-c2nc(N3CCOCC3)nc(N3CCOCC3)n2)c2ccccc12', 'no (0)'),
  ('CNc1nc2ncn(C)c2c(=O)[nH]1', 'no (0)'),
  ('COc1ccc(-c2nc(Nc3nc4ccccc4[nH]3)nc(N)c2C#N)cc1', 'no (0)'),
  ('COc1ccc(Cn2cc3c(c2-c2ccccc2)CCc2cnoc2-3)cc1N', 'no (0)');

* * *

- System: OVCAR-3 ovarian
- experiment.summary: NCI-60 one-dose screen, 48 h (100 = growth as untreated, 0 = no growth, -100 = all killed)
- condition.set: 10 µM unless noted
Compounds without any hit were thinned out: in the full panel of roughly 83,000, 20% have a hit.
Classify: label 1 when growth is strictly less than 90%; label 0 when growth is not.

INSERT INTO measurements (molecule, qualitative_label) VALUES
  ('N/C(=N\O)c1ccncc1', 'label 0'),
  ('NC(=O)CC(NC(=O)COc1ccc(Cl)cc1Cl)C(=O)O (stereo unspecified)', 'label 0'),
  ('CC(O)c1cc[cH-]c1.[Fe+2].c1cc[cH-]c1 (stereo unspecified)', 'label 0'),
  ('Cc1nc(NC(=S)Nc2ccc(F)cc2)sc1C(=O)NNC(=S)Nc1ccc(F)cc1', 'label 1'),
  ('COc1cc2ncnc(-n3ncc4cc(NC(=O)Nc5ccc(Cl)c(Cl)c5)ccc43)c2cc1OC', 'label 1'),
  ('OCCN1CCCN(CCCN2c3ccccc3Sc3ccc(C(F)(F)F)cc32)CC1', 'label 1'),
  ('COc1cc(/C=C/C(=O)c2ccc(F)cc2)ccc1OCCCCOc1cc2c(cc1OC)C(=O)N1CCCC1C=N2 (stereo unspecified)', 'label 1'),
  ('O=C1C=C(OCC=C(C(F)(F)F)C(F)(F)F)c2ccccc2C1=O', 'label 1'),
  ('CC(O)CN(CC(C)O)N(CC(C)O)CC(C)O (stereo unspecified)', 'label 0'),
  ('COc1ccc(Cn2cc3c(c2-c2ccccc2)CCc2cnoc2-3)cc1OC', 'label 1'),
  ('c1ccc(-c2cn3ccnc3c(-c3ccc4ncn(C5CCCCC5)c4c3)n2)cc1', 'label 1'),
  ('COc1ccc(-c2nc(SCC(C)C)nc(Nc3ccc(C)cc3)c2C#N)cc1', 'label 1'),
  ('COc1cc(-c2nc(/C=C3/C(=O)Nc4ccccc43)c3ccccn23)cc(OC)c1OC', 'label 1'),
  ('CN(CCC#N)c1ccc(/C=C(\C#N)c2cccc(C(F)(F)F)c2)cc1', 'label 1'),
  ('CC(=O)Nc1nc(C)c(C(=O)N/N=C/N2CCCCC2)s1', 'label 0'),
  ('CC1C(=O)CCCC1=O', 'label 0'),
  ('O=[N+]([O-])c1ccc(-c2ncc(-c3ccc(O)cc3O)[nH]2)cc1', 'label 0'),
  ('CC1(C)CC(=O)C2=C(C1)Oc1nc(N)c(C#N)c(N)c1C2c1ccc(F)cc1 (stereo unspecified)', 'label 0'),
  ('COC(=O)Nc1nc2ccc(C(=O)c3ccccc3N(C)C3COC3)cc2[nH]1', 'label 1'),
  ('CCCCCCNc1nc(N2CCOCC2)c2[nH]c(NCCCCCC)nc2n1', 'label 1'),
  ('COC(=O)c1ccc2[nH]c(O)c(C(=Nc3ccc(N(C)C(=O)CN4CCN(C)CC4)cc3)c3ccc(CCO)cc3)c2c1', 'label 1'),
  ('COc1cc(-c2nn(-c3ccc(NC(=O)Nc4ccc(Cl)c(C(F)(F)F)c4)cc3)cc2-c2ccncc2)ccc1Cl', 'label 1'),
  ('CSC1=Nc2c(c(C)c(-c3ccccc3)n2CCCCl)C2=NC(=O)CN12', 'label 1'),
  ('COc1ccc(C(=O)NCCNc2nccc(-c3c(-c4ccc(F)cc4)nc4sccn34)n2)cc1', 'label 1'),
  ('COc1ccc2c(c1)/C(=C/c1c(-c3cc(OC)c(OC)c(OC)c3)nc3sccn13)C(=O)N2', 'label 0'),
  ('CC(C)(C)C(=O)OCOP(=O)(OCOC(=O)C(C)(C)C)C1CC(O)N(O)C1=O (stereo unspecified)', 'label 1'),
  ('Br/C(=N\Nc1nn[nH]n1)c1ccccc1', 'label 0'),
  ('O=c1[nH]c2cc(O)ccc2n2cc3c(F)cccc3c12', 'label 1'),
  ('COc1cc2cc3cc4cc(OC)c(OC)cc4c(C)[n+]3cc2cc1OC (tested in a mixture with another compound)', 'label 1'),
  ('CCCCCCNC(=O)Oc1ccc(/C(=C(/C)Cc2ccc(OC)cc2)c2ccc(OCCN3CCCCC3)cc2)cc1', 'label 0'),
  ('N=C(N)c1ccc(-c2ccc(-c3ccc(F)cc3)s2)cc1', 'label 1'),
  ('COc1cc2ncnc(-n3ncc4cc(NC(=O)Nc5ccc(Cl)c(C)c5)ccc43)c2cc1OC', 'label 0'),
  ('CCCNC(=O)Oc1ccc(/C(=C(/C)Cc2ccc(OC)cc2)c2ccc(OCCN3CCCC3)cc2)cc1', 'label 1'),
  ('CCCCCCCCC1OC1CCCCCCCC(=O)O (stereo unspecified)', 'label 0'),
  ('COc1cc(-c2nc3c(c(C)nc4c3nnn4-c3ccccc3)c(=O)o2)cc(OC)c1OC', 'label 0'),
  ('COc1cc(OC)c(/C=C/c2ccc3ccccc3[n+]2C)c(OC)c1', 'label 1'),
  ('O=C1Nc2c(c(=O)n(-c3ccccc3)c3ccccc23)C(c2ccc(Cl)cc2)N1 (stereo unspecified)', 'label 0'),
  ('O=C(O)/C(Br)=C/c1c[nH]c2ccc(Br)cc12', 'label 0');

This collection of values is drawn from PubChem BioAssay (NCI).
